- system_tested: MDM2 (Homo sapiens, UniProt Q00987)
- Sequence (Q00987 whole entry): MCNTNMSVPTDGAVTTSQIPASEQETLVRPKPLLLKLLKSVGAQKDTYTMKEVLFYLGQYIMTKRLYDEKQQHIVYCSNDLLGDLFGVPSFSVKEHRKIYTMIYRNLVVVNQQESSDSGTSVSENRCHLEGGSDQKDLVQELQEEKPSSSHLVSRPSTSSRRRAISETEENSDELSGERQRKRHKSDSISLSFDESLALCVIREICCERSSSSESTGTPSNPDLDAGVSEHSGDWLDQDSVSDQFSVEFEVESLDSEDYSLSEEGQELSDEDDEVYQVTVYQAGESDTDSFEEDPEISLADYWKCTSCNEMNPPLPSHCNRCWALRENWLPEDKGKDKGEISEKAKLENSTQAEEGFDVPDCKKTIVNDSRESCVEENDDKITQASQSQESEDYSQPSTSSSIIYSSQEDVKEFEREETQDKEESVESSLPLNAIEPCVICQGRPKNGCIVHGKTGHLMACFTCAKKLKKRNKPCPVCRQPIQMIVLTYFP
- assay_name: TR-FRET
- Type: binding
- experimental_parameters: read-out: Inhibition rate at 1.0 μmol/L, MDM2

molecule	system_tested	inhibition at 1 µM (%)
CCOC(=O)[C@H]1Cc2c(cc([N+](=O)[O-])cc2[N+](=O)[O-])[C@H](O)[C@]12C(=O)Nc1c(F)cccc12	MDM2 (Homo sapiens, UniProt Q00987)	45.3
CCOC(=O)[C@H]1Cc2c(cc([N+](=O)[O-])cc2[N+](=O)[O-])[C@@H](O)[C@@]12C(=O)Nc1ccc(Br)cc12	MDM2 (Homo sapiens, UniProt Q00987)	92.3
O=C(c1ccc(Br)cc1)[C@H]1Cc2c(cc([N+](=O)[O-])cc2[N+](=O)[O-])[C@@H](O)[C@@]12C(=O)Nc1ccccc12	MDM2 (Homo sapiens, UniProt Q00987)	47.1
O=C(c1ccc(F)cc1)[C@H]1Cc2c(cc([N+](=O)[O-])cc2[N+](=O)[O-])[C@@H](O)[C@@]12C(=O)Nc1ccccc12	MDM2 (Homo sapiens, UniProt Q00987)	44.6
CCOC(=O)[C@H]1Cc2c(cc([N+](=O)[O-])cc2[N+](=O)[O-])[C@H](O)[C@]12C(=O)Nc1ccc(Cl)cc12	MDM2 (Homo sapiens, UniProt Q00987)	54.2
CCOC(=O)[C@H]1Cc2c(cc([N+](=O)[O-])cc2[N+](=O)[O-])[C@@H](O)[C@@]12C(=O)Nc1cc(Cl)ccc12	MDM2 (Homo sapiens, UniProt Q00987)	76.4

---

- system_tested: MDM2 (Homo sapiens)
- assay_name: TR-FRET
- Type: binding
- experimental_parameters: read-out: Inhibition rate at 1.0 μmol/L, MDM2
# maps each entry to its inhibition at 1 µM

molecule	inhibition at 1 µM
COc1ccc(C(=O)[C@H]2Cc3c(cc([N+](=O)[O-])cc3[N+](=O)[O-])[C@@H](O)[C@@]23C(=O)Nc2ccccc23)cc1	35.7%
O=C(c1ccccc1)[C@H]1Cc2c(cc([N+](=O)[O-])cc2[N+](=O)[O-])[C@H](O)[C@]12C(=O)Nc1ccccc12	35.4%
O=C(c1ccc(Cl)c(Cl)c1)[C@H]1Cc2c(cc([N+](=O)[O-])cc2[N+](=O)[O-])[C@@H](O)[C@@]12C(=O)Nc1ccccc12	38.4%
CCOC(=O)[C@H]1Cc2c(cc([N+](=O)[O-])cc2[N+](=O)[O-])[C@H](O)[C@]12C(=O)Nc1cc(Br)ccc12	61.2%
O=C(c1ccc(Br)cc1)[C@H]1Cc2c(cc([N+](=O)[O-])cc2[N+](=O)[O-])[C@H](O)[C@]12C(=O)Nc1ccccc12	29%
CCOC(=O)[C@H]1Cc2c(cc([N+](=O)[O-])cc2[N+](=O)[O-])[C@@H](O)[C@@]12C(=O)Nc1ccc(C)cc12	64.4%

---

- Tested on: U251 cells
- assay_name: MTT cell proliferation assay
- Assay type: cell-based
- experimental_parameters: Homo sapiens, U-251, 24 h, read-out: Anti-proliferative activity IC50, U251
pIC50: −log10 of the molar value.
# maps each entry to its pIC50
assay_readout: pIC50

molecule	system_tested	result_qualifier	reading
CC(=O)c1c(C)c2cnc(Nc3ccc(N4CCNCC4)cn3)nc2n(C2CCCC2)c1=O [Palbociclib, palbociclib, reference compound]	U251 cells	=	4.72
CCOC(=O)[C@H]1Cc2c(cc([N+](=O)[O-])cc2[N+](=O)[O-])[C@H](O)[C@]12C(=O)Nc1cc(Br)ccc12	U251 cells	<	4.30
O=C(c1ccc(Br)cc1)[C@H]1Cc2c(cc([N+](=O)[O-])cc2[N+](=O)[O-])[C@H](O)[C@]12C(=O)Nc1ccccc12	U251 cells	<	4.30
O=C(c1ccccc1F)[C@H]1Cc2c(cc([N+](=O)[O-])cc2[N+](=O)[O-])[C@H](O)[C@]12C(=O)Nc1ccccc12	U251 cells	<	4.30
CCOC(=O)[C@H]1Cc2c(cc([N+](=O)[O-])cc2[N+](=O)[O-])[C@H](O)[C@]12C(=O)Nc1ccc([N+](=O)[O-])cc12	U251 cells	<	4.30
COc1ccc(C(=O)[C@H]2Cc3c(cc([N+](=O)[O-])cc3[N+](=O)[O-])[C@@H](O)[C@@]23C(=O)Nc2ccccc23)cc1	U251 cells	=	4.36
O=C(c1ccccc1F)[C@H]1Cc2c(cc([N+](=O)[O-])cc2[N+](=O)[O-])[C@@H](O)[C@@]12C(=O)Nc1ccccc12	U251 cells	=	4.41
CCOC(=O)[C@H]1Cc2c(cc([N+](=O)[O-])cc2[N+](=O)[O-])[C@@H](O)[C@@]12C(=O)Nc1c(F)cccc12	U251 cells	=	4.46
CCOC(=O)[C@H]1Cc2c(cc([N+](=O)[O-])cc2[N+](=O)[O-])[C@H](O)[C@]12C(=O)Nc1ccc(Br)cc12	U251 cells	<	4.30
O=C(c1ccc(F)cc1)[C@H]1Cc2c(cc([N+](=O)[O-])cc2[N+](=O)[O-])[C@@H](O)[C@@]12C(=O)Nc1ccccc12	U251 cells	=	4.40
CCOC(=O)[C@H]1Cc2c(cc([N+](=O)[O-])cc2[N+](=O)[O-])[C@@H](O)[C@@]12C(=O)Nc1cc(Br)ccc12	U251 cells	=	4.74
O=C(c1ccc(Cl)c(Cl)c1)[C@H]1Cc2c(cc([N+](=O)[O-])cc2[N+](=O)[O-])[C@@H](O)[C@@]12C(=O)Nc1ccccc12	U251 cells	=	4.59
O=C(c1ccc(Cl)c(Cl)c1)[C@H]1Cc2c(cc([N+](=O)[O-])cc2[N+](=O)[O-])[C@H](O)[C@]12C(=O)Nc1ccccc12	U251 cells	<	4.30
CCOC(=O)[C@H]1Cc2c(cc([N+](=O)[O-])cc2[N+](=O)[O-])[C@@H](O)[C@@]12C(=O)Nc1ccc([N+](=O)[O-])cc12	U251 cells	=	4.44
CCOC(=O)[C@H]1Cc2c(cc([N+](=O)[O-])cc2[N+](=O)[O-])[C@@H](O)[C@@]12C(=O)Nc1ccc(C)cc12	U251 cells	=	4.41
CCOC(=O)[C@H]1Cc2c(cc([N+](=O)[O-])cc2[N+](=O)[O-])[C@@H](O)[C@@]12C(=O)Nc1cc(Cl)ccc12	U251 cells	=	4.54
O=C(c1ccc(F)cc1)[C@H]1Cc2c(cc([N+](=O)[O-])cc2[N+](=O)[O-])[C@H](O)[C@]12C(=O)Nc1ccccc12	U251 cells	<	4.30
O=C(c1ccccc1)[C@H]1Cc2c(cc([N+](=O)[O-])cc2[N+](=O)[O-])[C@@H](O)[C@@]12C(=O)Nc1ccccc12	U251 cells	=	4.27
COc1ccc(C(=O)[C@H]2Cc3c(cc([N+](=O)[O-])cc3[N+](=O)[O-])[C@H](O)[C@]23C(=O)Nc2ccccc23)cc1	U251 cells	<	4.30
O=C(c1ccc(Br)cc1)[C@H]1Cc2c(cc([N+](=O)[O-])cc2[N+](=O)[O-])[C@@H](O)[C@@]12C(=O)Nc1ccccc12	U251 cells	=	4.35
CCOC(=O)[C@H]1Cc2c(cc([N+](=O)[O-])cc2[N+](=O)[O-])[C@H](O)[C@]12C(=O)Nc1cc(Cl)ccc12	U251 cells	<	4.30
CCOC(=O)[C@H]1Cc2c(cc([N+](=O)[O-])cc2[N+](=O)[O-])[C@H](O)[C@]12C(=O)Nc1c(F)cccc12	U251 cells	<	4.30
CCOC(=O)[C@H]1Cc2c(cc([N+](=O)[O-])cc2[N+](=O)[O-])[C@@H](O)[C@@]12C(=O)Nc1ccc(Br)cc12	U251 cells	=	5.07
O=C(c1ccccc1)[C@H]1Cc2c(cc([N+](=O)[O-])cc2[N+](=O)[O-])[C@H](O)[C@]12C(=O)Nc1ccccc12	U251 cells	<	4.30
CCOC(=O)[C@H]1Cc2c(cc([N+](=O)[O-])cc2[N+](=O)[O-])[C@H](O)[C@]12C(=O)Nc1ccc(F)cc12	U251 cells	<	4.30
CCOC(=O)[C@H]1Cc2c(cc([N+](=O)[O-])cc2[N+](=O)[O-])[C@H](O)[C@]12C(=O)Nc1cccc(Br)c12	U251 cells	<	4.30
